Experiment: Solubility tests with Photo-caged MALDI Matrix Compounds in solvents/solvent systems
Type: physicochemical
Settings: overall rating from Table 2, Solvents 1-10
propertyLabel: solubility in the solvents or solvent systems under review

compound	reported
COc1cc(COc2cccc(O)c2C(C)=O)c([N+](=O)[O-])cc1OC [Ex. 1.4]	very good solubility
COc1cc(COc2ccc(O)c(C(C)=O)c2)c([N+](=O)[O-])cc1OC [Ex. 1.1]	very good solubility
COc1cc(CSc2nc3ccccc3s2)c([N+](=O)[O-])cc1OC [Ex. 1.5]	very good solubility

* * *

Test: Solubility tests with Photo-caged MALDI Matrix Compounds in solvents/solvent systems
Assay type: physicochemical
Conditions: organic solvent or mixture, thermodynamic from solid; Solvent 9: Methanol/water (v/v 85/15) + 0.1% trifluoroacetic acid; read-out: solubility (completely dissolved at 2.5 mg/mL)
propertyLabel: solubility

Given item COc1cc(CNc2cccc3c(N)cccc23)c([N+](=O)[O-])cc1OC , the value recorded as its solubility is > 2500 µg/mL

* * *

Experiment: Solubility tests with Photo-caged MALDI Matrix Compounds in solvents/solvent systems
Format: physicochemical
Conditions: organic solvent or mixture, thermodynamic from solid; Solvent 8: Methanol/water (v/v 85/15); read-out: solubility (completely dissolved at 2.5 mg/mL)
propertyLabel: solubility

Input COc1cc(CNc2cccc3c(N)cccc23)c([N+](=O)[O-])cc1OC [Ex. 1.2] . Output solubility: > 2500 µg/mL

* * *

Experiment: Solubility tests with Photo-caged MALDI Matrix Compounds in solvents/solvent systems
Type: physicochemical
Settings: organic solvent or mixture, thermodynamic from solid; Solvent 5: Methanol/water (v/v 90/10); read-out: solubility (completely dissolved at 2.5 mg/mL)
propertyLabel: solubility

Form field solubility, entry COc1cc(CNc2cccc3c(N)cccc23)c([N+](=O)[O-])cc1OC : > 2500 µg/mL

Entry COc1cc(CSc2nc3ccccc3s2)c([N+](=O)[O-])cc1OC ; solubility = > 2500 µg/mL

* * *

Assay: Solubility tests with Photo-caged MALDI Matrix Compounds in solvents/solvent systems
Format: physicochemical
Conditions: methanol/water (v/v 85/15) + 50 mM NH4HCO3, organic solvent or mixture, thermodynamic from solid; Solvent 10: Methanol/water (v/v 85/15) + 50 mM (final conc.) NH4HCO3; read-out: solubility (completely dissolved at 2.5 mg/mL)
propertyLabel: solubility

Entry COc1cc(CNc2cccc3c(N)cccc23)c([N+](=O)[O-])cc1OC ; solubility = > 2500 µg/mL

* * *

Assay: Solubility tests with Photo-caged MALDI Matrix Compounds in solvents/solvent systems
Assay type: physicochemical
Details: methanol/water (v/v 90/10) + 50 mM NH4HCO3, organic solvent or mixture, thermodynamic from solid; Solvent 7: Methanol/water (v/v 90/10) + 50 mM (final conc.) NH4HCO3; read-out: solubility (completely dissolved at 2.5 mg/mL)
propertyLabel: solubility

COc1cc(CNc2cccc3c(N)cccc23)c([N+](=O)[O-])cc1OC yielded solubility of > 2500 µg/mL

* * *

Experiment: Solubility tests with Photo-caged MALDI Matrix Compounds in solvents/solvent systems
Format: physicochemical
Details: Solvent 6: Methanol/water (v/v 90/10) + 0.1% trifluoroacetic acid
Experimental: Photo-caged MALDI Matrix Compounds according to the invention were prepared as described in Example 1 above and tested for solubility in different solvents (including solvent systems). […] Around 1 mg of each Photo-caged MALDI Matrix Compound was weighed into an Eppendorf tube using an analytical balance. The calculated amount of selected solvent was added into the tube to generate a solution at a maximal concentration of 2.5 mg/mL. […]
propertyLabel: solubility (completely dissolved at 2.5 mg/mL)

COc1cc(COc2cc3ccccc3oc2=O)c([N+](=O)[O-])cc1OC ◯
COc1cc(COc2cccc3c2C(=O)c2c(O)cccc2C3)c([N+](=O)[O-])cc1OC ◯
COc1cc(CSc2nc3ccccc3s2)c([N+](=O)[O-])cc1OC ◯
COc1cc(COc2cccc(O)c2C(C)=O)c([N+](=O)[O-])cc1OC ◯

The measurements presented in this section are drawn from patent US20240159706A1.
